Source listed as the supplement of paper PMC10065799.

Entries annotated with measured phosphorylation enrichment
target: FGFR1 (UniProt P11362); test: phosphorylation enrichment, bacterial display (enrichment ratio); higher = better substrate or ligand; peptides without Tyr show the background;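 note: 11-residue human phosphosite peptides and single-mutation variants displayed on the E. coli surface, counted by deep sequencing, each peptide's frequency after selection divided by its frequency in the unselected input library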;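 note: frequency after pTyr selection over input frequency; kinase dosed for 20-30% of maximal phosphorylation in three min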
Sequence (P11362 whole entry, looked up): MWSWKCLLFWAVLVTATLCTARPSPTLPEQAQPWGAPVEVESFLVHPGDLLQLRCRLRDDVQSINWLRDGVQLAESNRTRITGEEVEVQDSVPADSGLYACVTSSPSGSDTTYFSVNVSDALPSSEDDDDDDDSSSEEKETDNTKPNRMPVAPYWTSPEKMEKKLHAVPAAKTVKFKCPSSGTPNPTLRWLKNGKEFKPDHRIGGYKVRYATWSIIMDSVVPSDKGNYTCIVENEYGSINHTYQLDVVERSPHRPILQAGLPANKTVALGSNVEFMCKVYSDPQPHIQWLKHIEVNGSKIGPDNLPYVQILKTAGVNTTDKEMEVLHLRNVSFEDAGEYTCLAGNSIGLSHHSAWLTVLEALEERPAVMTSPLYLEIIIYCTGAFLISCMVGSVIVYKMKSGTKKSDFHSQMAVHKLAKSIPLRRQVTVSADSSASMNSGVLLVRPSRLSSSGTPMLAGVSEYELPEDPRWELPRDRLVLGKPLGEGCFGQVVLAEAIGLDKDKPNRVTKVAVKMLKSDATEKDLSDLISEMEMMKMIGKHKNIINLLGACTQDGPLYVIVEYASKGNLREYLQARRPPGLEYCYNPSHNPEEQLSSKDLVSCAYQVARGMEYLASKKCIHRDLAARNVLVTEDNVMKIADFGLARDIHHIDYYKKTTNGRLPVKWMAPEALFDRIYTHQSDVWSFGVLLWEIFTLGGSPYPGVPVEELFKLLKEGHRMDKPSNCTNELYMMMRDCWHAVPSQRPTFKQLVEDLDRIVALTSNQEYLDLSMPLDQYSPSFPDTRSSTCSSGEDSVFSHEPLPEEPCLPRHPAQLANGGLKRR
readout: phosphorylation enrichment

construct sequence: RVEDAYILTCN [CCT6A_Y229]
value observed: 0.721

construct sequence: HLTNQFMQRVA [PABPC4_Y382_Y382F]
value observed: 0.576

construct sequence: FLTSSYINIST [IL23R_Y178_YF]
value observed: 0.517

construct sequence: CSEETYRLMLQ [RET_Y981_M980T]
value observed: 0.741

construct sequence: VHYLVYHHHHH [CACNA1H_Y519_H516Y]
value observed: 0.7

construct sequence: AEQDCYHGAIP [FER_Y461_W460C]
value observed: 0.523

construct sequence: KSLSQYLEMDK [CAGE1_Y438_V435L]
value observed: 0.545

construct sequence: KSIQLYDTPFE [SHB_Y297_G293S_YF]
value observed: 0.518

construct sequence: MEVGQYIFVKC [CYBB_Y324]
value observed: 2.8

construct sequence: QVMDGYPIPIG [MMP14_Y353_M355I]
value observed: 0.406

construct sequence: GVFSRYFTTFD [CLCA1_Y661_YF]
value observed: 0.468

construct sequence: KRLKDYLMVLQ [USP25_Y425_T427M]
value observed: 1.5

construct sequence: KERNQYGGVMV [MMP21_Y347_E349G]
value observed: 0.418

construct sequence: KNILCYIQGGS [HYDIN_Y4610]
value observed: 0.585

construct sequence: ETDPRYFDEEF [AKT1_Y437_T435P]
value observed: 0.548

construct sequence: KVALPYKPFFF [POLE_Y100_YF]
value observed: 0.375

construct sequence: KSNSDYVDVLP [SH2D1B_Y127_N122K]
value observed: 2.42

construct sequence: LVSCAYQVARG [FGFR1_Y605]
value observed: 0.462

construct sequence: FEHVGYTTLNR [CHN1_Y148_YF]
value observed: 0.426

construct sequence: QGGRRYMMIVD [GAA_Y438]
value observed: 0.413

construct sequence: VHNLDYYKETT [FGFR3_Y647_K650E]
value observed: 0.789

construct sequence: PDSVDYRKKGF [CTSK_Y121_YF]
value observed: 0.402

construct sequence: PLFKICVAELI [MRPL28_Y230_Y230C]
value observed: 0.499

construct sequence: TLQTMYGCDVG [HLA-B_Y123_S121T]
value observed: 0.556

construct sequence: INPIIYAFVGG [CCR5_Y297_E302G]
value observed: 4.39

construct sequence: HKDNNYISMWF [PAPOLG_Y432_V433I]
value observed: 3.2

construct sequence: IIRYNYLLDVL [FGFR4_Y237_S232I]
value observed: 0.599

construct sequence: DFPGNYSGFDD [POLR1C_Y33_YF]
value observed: 0.456

construct sequence: DLRTGYSVPYG [TGM1_Y370_Y365D]
value observed: 0.553

construct sequence: YEKFLYFLPAS [DYNC2H1_Y346_H341Y]
value observed: 0.57

construct sequence: TSPKSYPSQKH [CAP2_Y316]
value observed: 0.357

construct sequence: QMQAAYQKAVA [HBD_Y131_V134A]
value observed: 0.652

construct sequence: SSNTEYLSASD [INSR_Y999_P997T]
value observed: 0.518

construct sequence: RFLRGYRQHAF [HLA-A_Y137_D140H_YF]
value observed: 0.564

construct sequence: SFGENYDNSKS [MAN1B1_Y60]
value observed: 0.452

construct sequence: CPASVYTKRCS [CPT2_Y508_R503C]
value observed: 0.447

construct sequence: HQEPVCSVAFS [TBL1X_Y509_Y509C]
value observed: 1.12

construct sequence: TYVVLYDAELT [ERCC4_Y581_R576T]
value observed: 1.79

construct sequence: FPPTHYIRRVP [SLC4A11_Y820_YF]
value observed: 0.437

construct sequence: QRRFLYFFSFL [PTEN_Y176_V175L_YF]
value observed: 0.978

construct sequence: SKEPFYVRCIK [MYO1D_Y586_YF]
value observed: 0.42

construct sequence: NTQRPHFKGGG [TYROBP_Y111_Y111H_YF]
value observed: 0.318

construct sequence: GRRNTCFASIA [ACADM_Y352_Y352C_YF]
value observed: 0.377

construct sequence: SILTVYSKDNY [PANK2_Y400_A398T]
value observed: 0.452

construct sequence: MAPQMYEFHLP [NCAPD2_Y6]
value observed: 0.443

construct sequence: CTTIHYNYMCT [TP53_Y234_N239T]
value observed: 0.899

construct sequence: EYHRLYEEYTR [PIK3R1_Y467_D464H]
value observed: 2.52

construct sequence: FSAGTYPRMEE [SYCN_Y108_L111M]
value observed: 1.12

construct sequence: EYFDGYWEYSV [ITGA2B_Y265_G267E]
value observed: 13.8

construct sequence: FQEPVYSVAFS [TBL1X_Y509_H504Y_YF]
value observed: 3.68

construct sequence: TLGPFYPSLLF [CRYAA_Y18_R21L]
value observed: 0.646

construct sequence: FSQETYFRVSN [ABCD1_Y180_Q178E_YF]
value observed: 1.64

construct sequence: INSLKYAFNIS [EIF2B5_Y583_YF]
value observed: 0.451

construct sequence: GGDAVYTNGAI [RFX2_Y82]
value observed: 0.484

construct sequence: FPKARYRWLVL [APTX_Y214_H215R_YF]
value observed: 0.533

construct sequence: DYNPNYCFAGK [ALK_Y1096]
value observed: 0.641
